assayed-system: Calcium/calmodulin-dependent protein kinase type II subunit alpha (Homo sapiens);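 further: reported value is a mean percent inhibition of CAMK2A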
details: at 1 µM
Listed next: entries and their corresponding inhibition.

# structure-as-smiles, result-unit, inhibition
records = [
    ("COC(=O)Nc1nc2cc(Oc3ccc(NC(=O)Nc4cccc(C(=O)O)c4)cc3)ccc2[nH]1", "%", 3.09),
    ("COc1cc2ncn(-c3cc(O[C@@H](C)c4ccccc4Cl)c(C(N)=O)s3)c2cc1OC", "%", -1),
    ("CCn1c(-c2nonc2N)nc2c(N3CCCC3)nccc21", "%", -3.88),
    ("CCn1c(-c2nonc2N)nc2ccncc21", "%", 6.48),
    ("CC(C)=Cc1cccc2c1/C(=N/Nc1ccc(S(N)(=O)=O)cc1)C(=O)N2", "%", 6.48),
    ("Nc1nc(-c2ccccn2)c(-c2ccc3ncccc3n2)s1", "%", 2.01),
]

====

assayed-system: Cyclin-dependent kinase 6 (Homo sapiens);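 further: mean percent inhibition of CDK6 complexed with cyclin D3, from the GSK PKIS kinase inhibitor screen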
details: at 0.1 µM
readout-type: inhibition (%)

# compound, assayed-system, result-unit, observed-value
measured = [
    ("CC(=O)Nc1cccc(C#Cc2cncnc2Nc2ccc(OCc3cccc(F)c3)c(Cl)c2)n1", "Cyclin-dependent kinase 6 (Homo sapiens)", "%", -1.85),
    ("O=C1Nc2ccc(C(=O)c3ccco3)cc2C1=Cc1cc(Cl)c(O)c(Cl)c1", "Cyclin-dependent kinase 6 (Homo sapiens)", "%", 3.35),
    ("O=C1NC(=O)C(c2ccccc2Cl)=C1Nc1cccc(O)c1", "Cyclin-dependent kinase 6 (Homo sapiens)", "%", 7.16),
    ("COC(=O)Nc1nc2cc(Oc3cccc(NC(=O)Nc4cc(C(F)(F)F)ccc4F)c3)ccc2[nH]1", "Cyclin-dependent kinase 6 (Homo sapiens)", "%", -5.71),
    ("Fc1cccc(COc2ccc(Nc3ncnc4sc(-c5cccs5)cc34)cc2Cl)c1", "Cyclin-dependent kinase 6 (Homo sapiens)", "%", -0.81),
    ("COc1ccc(-c2ccncc2)cc1C(N)=O", "Cyclin-dependent kinase 6 (Homo sapiens)", "%", -5.08),
    ("COc1ccc(-c2nn3ncccc3c2-c2ccnc(Nc3ccc(Cl)c(C(F)(F)F)c3)n2)cc1", "Cyclin-dependent kinase 6 (Homo sapiens)", "%", 0.68),
    ("CC(C)=Cc1cccc2c1/C(=N/Nc1ccc(S(N)(=O)=O)cc1)C(=O)N2", "Cyclin-dependent kinase 6 (Homo sapiens)", "%", 63.6),
    ("CNC(=O)c1cncc(/C=C/c2c(Cl)cccc2Cl)c1", "Cyclin-dependent kinase 6 (Homo sapiens)", "%", -5.76),
    ("CS(=O)(=O)CCNCc1ccc(-c2ccc3ncnc(Nc4ccc(OCc5ccccc5)c(Cl)c4)c3c2)o1", "Cyclin-dependent kinase 6 (Homo sapiens)", "%", -5.27),
    ("COc1cc2c(cc1Nc1nc(N3CCc4ccccc43)c3cc[nH]c3n1)N(C(=O)CN(C)C)CC2", "Cyclin-dependent kinase 6 (Homo sapiens)", "%", 0.95),
    ("Cc1nnc(-c2ccc(C)c(-c3ccc(C(=O)Nc4cccc(C#N)c4)cc3)c2)o1", "Cyclin-dependent kinase 6 (Homo sapiens)", "%", 1.26),
    ("CCn1c(-c2nonc2N)nc2cncc(C(=O)N3CC[C@H](N)C3)c21", "Cyclin-dependent kinase 6 (Homo sapiens)", "%", -1.51),
    ("CS(=O)(=O)Nc1ccc(N/C=C2\\C(=O)Nc3ccccc32)cc1", "Cyclin-dependent kinase 6 (Homo sapiens)", "%", 12.9),
    ("CCn1c(-c2nonc2N)nc2c(C#CC(C)(C)O)nc(OC[C@@H](N)c3ccccc3)cc21", "Cyclin-dependent kinase 6 (Homo sapiens)", "%", -0.27),
    ("COc1cc2ncn(-c3cc(OCc4ccccc4C(F)(F)F)c(C(N)=O)s3)c2cc1OC", "Cyclin-dependent kinase 6 (Homo sapiens)", "%", -3.21),
    ("COc1cc(C=NNc2ncnc3c2cnn3-c2ccccc2)ccc1O", "Cyclin-dependent kinase 6 (Homo sapiens)", "%", 4.2),
    ("CCCN1CCC=C(c2ccc(Nc3nc(Nc4ccccc4C(N)=O)c4cc[nH]c4n3)c(C)c2)C1", "Cyclin-dependent kinase 6 (Homo sapiens)", "%", 0.69),
    ("O=C1NC(=O)C(N2CCc3ccccc32)=C1c1ccc(Cl)cc1", "Cyclin-dependent kinase 6 (Homo sapiens)", "%", -3.76),
    ("Nc1nc(-c2ccccn2)c(-c2ccc3ncccc3n2)s1", "Cyclin-dependent kinase 6 (Homo sapiens)", "%", 6.73),
    ("COc1cc2ncn(-c3cc(OCc4ccccc4Cl)c(C(N)=O)s3)c2cc1OC", "Cyclin-dependent kinase 6 (Homo sapiens)", "%", -4.1),
    ("Nc1ncnc2occ(-c3ccc(NC(=O)Nc4cc(C(F)(F)F)cc(C(F)(F)F)c4)cc3)c12", "Cyclin-dependent kinase 6 (Homo sapiens)", "%", -0.28),
    ("CC1=C(C(=O)Nc2ccc3[nH]ncc3c2)C(c2ccc(F)cc2)NC(=O)N1 (stereo unspecified)", "Cyclin-dependent kinase 6 (Homo sapiens)", "%", -2.46),
    ("NS(=O)(=O)c1ccc(N/N=C2\\C(=O)Nc3ccc(C(=O)NCCc4c[nH]cn4)cc32)cc1", "Cyclin-dependent kinase 6 (Homo sapiens)", "%", 14.9),
    ("Cc1ccc(NC(=O)c2ccnc(N3CCCC3)c2)cc1-c1ccc(C(=O)NCC2CC2)cc1", "Cyclin-dependent kinase 6 (Homo sapiens)", "%", -7.97),
    ("NC(=O)c1ccc(-c2nc(-c3ccccn3)c(-c3ccc4c(c3)OCO4)[nH]2)cc1", "Cyclin-dependent kinase 6 (Homo sapiens)", "%", 1),
    ("NS(=O)(=O)c1cccc(-c2ccc3c(NC(=O)C4CC4)n[nH]c3c2)c1", "Cyclin-dependent kinase 6 (Homo sapiens)", "%", -1.94),
    ("Nc1nc(-c2ccc3c(c2)C(=Cc2cc(Br)c(O)c(Br)c2)C(=O)N3)cs1", "Cyclin-dependent kinase 6 (Homo sapiens)", "%", -5),
    ("Cc1ccc(C(=O)NC2CCCCC2)cc1-c1ccc(C(=O)NCC2CC2)cc1", "Cyclin-dependent kinase 6 (Homo sapiens)", "%", 3.79),
    ("CS(=O)(=O)CCN(CC#N)Cc1ccc(-c2ccc3ncnc(Nc4ccc(OCc5cccc(F)c5)c(Cl)c4)c3c2)o1", "Cyclin-dependent kinase 6 (Homo sapiens)", "%", -5.97),
    ("NCc1ccc(-c2nc(-c3ccc(Cl)c(O)c3)c(-c3ccncc3)[nH]2)cc1", "Cyclin-dependent kinase 6 (Homo sapiens)", "%", -3.35),
    ("COc1cccc(-n2ncc3c(N/N=C/c4cccc(F)c4)ncnc32)c1", "Cyclin-dependent kinase 6 (Homo sapiens)", "%", -5.64),
    ("COc1ccccc1Nc1ncc(-c2ccccc2)o1", "Cyclin-dependent kinase 6 (Homo sapiens)", "%", -0.22),
    ("CCN1CCC(CC(=O)Nc2n[nH]c3nc(-c4cccs4)c(Br)cc23)CC1", "Cyclin-dependent kinase 6 (Homo sapiens)", "%", 30.9),
    ("CCn1c(-c2nonc2N)nc2cnc(Oc3cccc(NC(=O)c4ccc(OCCN5CCOCC5)cc4)c3)cc21", "Cyclin-dependent kinase 6 (Homo sapiens)", "%", -1.58),
    ("CC1=C(C(=O)Nc2ccc3[nH]ncc3c2)C(c2ccc(Cl)c(Cl)c2)CC(=O)N1 (stereo unspecified)", "Cyclin-dependent kinase 6 (Homo sapiens)", "%", 2.47),
]
